TEST SYSTEM: Tyrosyl-tRNA synthetase, putative (Trypanosoma cruzi (strain CL Brener))
ASSAY DETAILS: Trypanosoma cruzi tyrosyl tRNA synthetase (TcYRS) _High Tyrosine SOP
Assay type: functional
Design: scale not given: in the data most compounds retested in dose-response had high values
ASSAY CONTEXT: 30 µM
Classify by measured Percent Effect: fulfilled if it is equal to or exceeds 2%, not fulfilled if it is smaller.

hey, is Percent Effect for this one >= 2%? COCc1noc(-c2ccc(N3CCCCC3CO)nc2)n1 (centres undefined)
not fulfilled

Given the entry COc1ccccc1OCC(=O)NS(=O)(=O)c1ccc(C)s1 , answer whether its Percent Effect meets or surpasses 2%.
not fulfilled

Reported Percent Effect reaches at least 2% for CS(=O)(=O)N1CCC(NC(=O)COc2ccc(Cl)c(Cl)c2)CC1 ?
fulfilled

Reported Percent Effect at or above 2%? Cc1ccc(OCCC(=O)N2CCN(c3cnccn3)CC2)cc1C
fulfilled

State whether the measured Percent Effect reaches 2%, counting equality as reaching it, for CC(C)(C(=O)NCC1CC1)c1ccccc1F
fulfilled

Tell me whether Percent Effect is at least 2% here: c1ccc(CCNC2CCc3ncnn3C2)nc1 (centres undefined)
fulfilled

Is reported Percent Effect greater than or equal to 2% here: COCCNC(=O)[C@H]1CN(Cc2nccs2)C[C@H]2OCC[C@@H]12
fulfilled

Given the entry c1csc(CN2CCO[C@H]3[C@H](OCCN4CCCC4)CC[C@@H]32)n1 , answer whether its Percent Effect meets or surpasses 2%.
fulfilled

Check if Percent Effect >= 2% (inclusive). Item: Cn1nc(C(=O)N2CCCCC2c2nc3cc(F)ccc3[nH]2)ccc1=O (centres undefined)
fulfilled

// inclusive: Percent Effect at least 2%? input: O=C(Nc1nccs1)NC1CCN(Cc2ccccc2)C1 (centres undefined)
fulfilled

Hi, just wondering whether CSCC(=O)N1CCCN(c2ccccc2C)CC1 shows Percent Effect of 2% or higher.
not fulfilled

Dear colleague, could you confirm whether CC(C)n1ccnc1C1CCN(C(=O)c2ccccc2)CC1 has Percent Effect at or above 2%?
fulfilled

Could you verify whether the entry CCc1nnc2n1CCN(Cc1csc(-c3ccc(C)o3)n1)C2 shows Percent Effect of no less than 2%?
fulfilled

Is the recorded value of Percent Effect equal to or greater than 2% for this compound? Cc1ncccc1O[C@H]1CCN(C(=O)Cc2cccs2)CC[C@@H]1O
fulfilled

Is reported Percent Effect greater than or equal to 2% here: Cc1cc(C)n(-c2ccc(CNCc3ccc(OC(C)C)cc3)cn2)n1
fulfilled

Please indicate if the recorded Percent Effect for COc1ccc(CN2CC[C@H]3[C@H]2CCN3C(=O)c2cnn(C)c2)cc1 meets or exceeds 2%.
not fulfilled

Is Percent Effect for COc1ccc(CNCCc2cc(F)cc3c2OCOC3)cc1O at or above 2%?
fulfilled

For this compound, is measured Percent Effect 2% or higher? O=C(NCc1nn(-c2ccccc2)c2c1CCC2)NC1CC1
not fulfilled

Could you verify whether the entry CN(C)C(=O)C1CN(Cc2ccccc2)CCN(S(C)(=O)=O)C1 (centres undefined) shows Percent Effect of no less than 2%?
fulfilled

Reported Percent Effect at or above 2%? Cc1nn(C(C)C)c(C)c1NC(=O)c1ccccc1
fulfilled

# check: Percent Effect of O=C(CN1CCCC(Cn2cncn2)C1)NCCOc1ccccc1 (centres undefined) is greater than or equal to 2%
not fulfilled

Please tell me: is the compound O=C(Cc1cccnc1)N1CCC(OCc2ccccc2)CC1 at or over 2% in terms of Percent Effect?
fulfilled

Does the reported Percent Effect for COc1cccc(F)c1C(=O)N1C[C@@H](CN(C)CCO)[C@@H](CO)C1 fall at or above the 2% mark?
fulfilled

The origin of these recorded values is ChEMBL document CHEMBL3988442.
